Reported pKd values follow for various binders
- System name: T1, TX1BP3, O14907
- T1 sequence (O14907 10-122, limits assumed, looked up): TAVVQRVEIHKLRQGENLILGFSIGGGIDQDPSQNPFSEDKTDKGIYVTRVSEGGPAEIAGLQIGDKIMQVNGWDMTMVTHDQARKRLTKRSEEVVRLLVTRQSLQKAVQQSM
- Assay info: holdup assay
- Design: key: below the threshold = too weak to quantify, mostly under pKd 3.1 to 4
- Experimental parameters: plain residues with an end cap or a label only (N-terminal biotin on a linker: ttds)
Readout label: pKd

Binder | Quantitative result
GARVSKETPL [MAPK12, P53778] | 4.26
SSIDLWETAL [SLC15A5, A6NIM6] | 5.24
FVETQHQTQV [FAT3, Q8TDW7] | 4
GRLLGLETNV [ARHGEF26, Q96DR7] | 4.49
SHSSKGETAV [FZD7, O75084] | 3.89
SRSRRRETAL [HPV33-E6, P06427] | 5.07
KQVVPFSSSV [GDA, Q9Y2T3] | 4.31
